- Tested on: RXRa DBDmut IVT, anti-RXR (DBD mutation: RXRa K156A/R161A, NR concentration 90 nM)
- test.protocol: PBM binding z-score (relative to random genomic background probes); higher = stronger binding; sequences stand for … in GC…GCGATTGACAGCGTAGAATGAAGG
PBM binding z-score: recorded values
Please respond with just the number, no unit label.

Example cases with answers are listed next.
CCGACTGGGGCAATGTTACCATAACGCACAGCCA    -0.0343
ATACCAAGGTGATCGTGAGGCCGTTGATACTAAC    0.132
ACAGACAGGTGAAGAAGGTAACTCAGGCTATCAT    -0.215
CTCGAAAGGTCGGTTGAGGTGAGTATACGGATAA    0.556
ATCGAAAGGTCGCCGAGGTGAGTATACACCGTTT    1.78

Q: Record request: PBM binding z-score value, item "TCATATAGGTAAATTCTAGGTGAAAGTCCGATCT"
A: 1.81

Q: Quick one: PBM binding z-score for "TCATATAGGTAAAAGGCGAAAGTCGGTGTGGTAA" ?
A: 1.51

Q: Record request: PBM binding z-score value, item "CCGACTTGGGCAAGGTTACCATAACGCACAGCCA"
A: 0.164

Q: Which value of PBM binding z-score has been reported for "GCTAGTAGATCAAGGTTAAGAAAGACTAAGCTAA" in the records?
A: -0.105

Q: # lookup: PBM binding z-score of "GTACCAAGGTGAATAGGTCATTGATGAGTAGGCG"
A: -0.0633

Q: So what's the measured PBM binding z-score for this one? "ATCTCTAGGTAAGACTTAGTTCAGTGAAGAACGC"
A: 0.325

Q: Data request, read-out PBM binding z-score, for "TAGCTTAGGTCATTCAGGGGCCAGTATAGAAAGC"
A: 2.36

Cited source: the supplement of paper PMC6555819
